# Lookup of reported VNA titers keyed by entry
TEST_TARGET: HA of influenza B virus B/Florida/04/2006 (live virus) (influenza B virus B/Florida/04/2006)
ASSAY_PROTOCOL: cell-based or functional assay

BINDER: CR8032 (antibody, V domains shown) VH: EVQLVESGGGLVQPGRSLRLSCAASGFSFDEYIMHWVRQAPGKGLEWVAGINWKGNFMGYADSVQGRFTISRDNGKNSLYLQMNSLRAEDTALYYCAKDRLESSAMDILEGGTFDIWGQGTMVTVSS VL: QSALTQPASVSGSPGQSITISCTGTRRDVGDYKYVSWYQQHPGKAPKLMIYDVSNRPSGVSNRFSGSKSGTTASLTISGLQAEDEADYYCSSYTTSNTRVFGGGTKLTVL
VNA titers: 0.69 µg/mL
//
BINDER: CR11038 (antibody, V domains shown) VH: EVQLVESGAEVKKPGASVKVSCKASGYAFTSYYLHWVRQAPGQGLEWMGIMNPHGGSTTYAQKFQGRVTMTRDTSTSTVYMELSSLRSEDTAVYYCARESPDSSGYPGYYGMDVWGQGTTVTVSS VL: SYELTQPPSASGTPGQRVTMSCSGSRSNIGSNPVSWFQQLPGMVPKLLIYTNDQRPSGVPDRFSGSKSGPSASLAISGLQSEDEADYYCAAWDDSLKGWVFGGGTKLTVL
VNA titers: < 0.06 µg/mL
//
BINDER: CR11035 (antibody, V domains shown) VH: QVQLVQSGAEVKKPGSSVKVSCKTSGYAFNGYGISWVRQAPGQGLEWVAWINTYKVNTHYAQNLRGRVTVSIDTSTTTAYMELRSLRSDDTAVYYCARDWGGPFGNAFDFWGQGTMVTVSS VL: DIQMTQSPSSLAASIGDSVTITCRASQSVGSYLNWYQQKPGKAPKLLIYGASNVQSGVPSRFSGSESGTESTLTINNLQPEDSATYYCQQSYSTPRTFGQGTKVEIK
VNA titers: < 0.06 µg/mL

Values from patent US20160002318A1
